target: ComD2 receptor (Streptococcus pneumoniae); assay: cell-based or functional assay
property.label: EC50 (reporter strain) (nM)
Answer format: numeric, nM implied, no suffix.

| binder | unit.info | reading |
| --- | --- | --- |
| EMRISRIILDFLFLRKK [CSP2 (competence stimulating peptide 2)] | nM | 50.7 |

Attention now shifts to the item below.
Input line: Please report the measured EC50 (reporter strain) for EMRLSXFFREFILQRKK (Dab at position 6; side chain-to-side chain lactam between Dab6 and Glu10) [CSP1-cyc(Dab6E10)]
Output line: 31.4

The values you see were collected from patent US20220227814A1.
